Biological target: isolated recombinant JAK2 kinase domain (Homo sapiens, UniProt O60674)
Construct: isolated recombinant JAK1 and JAK2 kinase domain
Sequence (O60674 849-1124 limits assumed): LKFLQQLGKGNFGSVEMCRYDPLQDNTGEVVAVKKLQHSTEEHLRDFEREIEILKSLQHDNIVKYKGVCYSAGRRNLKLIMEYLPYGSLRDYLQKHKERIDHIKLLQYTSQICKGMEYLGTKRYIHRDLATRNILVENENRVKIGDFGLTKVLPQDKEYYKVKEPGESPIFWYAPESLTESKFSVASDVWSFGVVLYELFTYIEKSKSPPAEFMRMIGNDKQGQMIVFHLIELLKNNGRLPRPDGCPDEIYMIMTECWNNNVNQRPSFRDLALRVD
Assay: JAK enzyme assay, JAK2 kinase domain (Caliper LabChip)
Conditions: 0.2 nM JAK2, ATP 25 μM, Morrison tight binding model
quantity measured: Ki (nM)

>>> print(df.to_string())
                                   compound  value_observed
0  CN1CCC(n2cc(NC(=O)c3cnn4cccnc34)c(-c3cc4c(cc3OC(F)F)NCCO4)n2)C1=O (single isomer, unassigned) [Example 11]             0.5
1  CN1CC[C@@H](n2cc(NC(=O)c3cnn4cccnc34)c(-c3cc(Cl)ccc3OC(F)F)n2)C1=O (stereo in doubt)            0.81
2  CS(=O)(=O)c1ccc(OC(F)F)c(-c2nn(C3CCOC3=O)cc2NC(=O)c2cnn3cccnc23)c1 (single isomer, unassigned) [Example 41]            0.23
3  O=C(Nc1cn(C2CCNC2=O)nc1-c1cc(Cl)ccc1OC(F)F)c1cnn2cccnc12 (single isomer, unassigned)            0.48
4  O=C(Nc1cn(C2CCOC2=O)nc1-c1cc(Cl)ccc1OC(F)F)c1cnn2cccnc12 (single isomer, unassigned) [Example 27]             0.5
5  CN1CC[C@H](n2cc(NC(=O)c3cnn4cccnc34)c(-c3cc(Cl)ccc3OC(F)F)n2)C1=O (stereo in doubt)             0.4
6  O=C(Nc1cn(C2CCN(C3COC3)C2=O)nc1-c1cc(Cl)ccc1OC(F)F)c1cnn2cccnc12 (single isomer, unassigned) [Example 24]            0.98
7  O=C(Nc1cn(C2CCOC2=O)nc1-c1cc(Cl)ccc1OC(F)F)c1cnn2cccnc12 (racemic) [Example 25]            0.21
